Target: T1, human factor X (human, UniProt P00742 41-179; P00742 183-488)
T1 construct: Zymogen used as analyte in SPR; also called FX; Human FX (MW ~58 KDa)
T1 sequence (P00742 41-179, chain 1 of 2): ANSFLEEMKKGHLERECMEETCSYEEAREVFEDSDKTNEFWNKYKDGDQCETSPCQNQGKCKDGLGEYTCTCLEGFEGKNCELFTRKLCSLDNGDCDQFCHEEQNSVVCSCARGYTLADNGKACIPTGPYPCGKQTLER
T1 sequence (P00742 183-488, chain 2 of 2): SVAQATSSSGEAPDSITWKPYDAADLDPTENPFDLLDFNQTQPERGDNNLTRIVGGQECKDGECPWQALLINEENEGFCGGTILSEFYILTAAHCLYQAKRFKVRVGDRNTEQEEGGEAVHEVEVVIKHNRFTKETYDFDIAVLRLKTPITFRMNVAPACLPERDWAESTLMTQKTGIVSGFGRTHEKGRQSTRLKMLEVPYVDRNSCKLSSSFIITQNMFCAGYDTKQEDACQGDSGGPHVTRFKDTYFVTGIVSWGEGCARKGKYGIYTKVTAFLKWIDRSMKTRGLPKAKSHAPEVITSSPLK
Test: SPR, IgG captured on anti-human IgG Fc, human FX as analyte
Each item that follows carries a reported koff.
Reply with just the number (in s⁻¹).

Worked set:
[[record]]
binder = "TINA-0215.0128 (antibody, V domains shown, Monospecific IgG4PE) VH: QVQLVQSGAEVKKPGASVKVSCKASRYSFTSYYMHWVRQAPGQGLEWMGIINPKSGSTSYAQKFQGRVTMTRDTSTSTVYMELSSLRSEDTAVYYCARDGYGSSSRCLQLWGQGTLVTVSS VL: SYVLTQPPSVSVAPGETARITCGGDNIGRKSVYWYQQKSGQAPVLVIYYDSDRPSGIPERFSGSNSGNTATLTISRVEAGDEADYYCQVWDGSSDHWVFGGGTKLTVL"
endpoint_value = 0.0787

[[record]]
binder = "TINA-0201.0128 (antibody, V domains shown, Monospecific IgG4PE) VH: QVQLIQSGAEVKKPGASVKVSCKASRYSFTSYYMHWVRQAPGQGLEWMGIINPKSGSTSYAQKFQGRVTMTRDTSTSTVYMELSSLRSEDTAVYYCARDGYGSSSRCLQLWGQGTLVTVSS VL: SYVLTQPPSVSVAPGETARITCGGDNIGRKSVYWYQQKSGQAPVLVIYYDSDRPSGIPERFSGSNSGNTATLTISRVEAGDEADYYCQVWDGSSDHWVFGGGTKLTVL"
endpoint_value = 0.0502

[[record]]
binder = "TINA-0207.0128 (antibody, V domains shown, Monospecific IgG4PE) VH: QVQLVQSGAEVKKTGASVKVSCKASRYSFTSYYMHWVRQAPGQGLEWMGIINPKSGSTSYAQKFQGRVTMTRDTSTSTVYMELSSLRSEDTAVYYCARDGYGSSSRCLQLWGQGTLVTVSS VL: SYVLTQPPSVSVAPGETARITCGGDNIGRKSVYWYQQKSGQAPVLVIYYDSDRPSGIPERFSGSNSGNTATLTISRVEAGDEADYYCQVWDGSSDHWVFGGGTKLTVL"
endpoint_value = 0.141

[[record]]
binder = "TINA-0202.0128 (antibody, V domains shown, Monospecific IgG4PE) VH: QVQLIQSGAEVQKPGASVKVSCKASRYSFTSYYMHWVRQAPGQGLEWMGIINPKSGSTSYAQKFQGRVTMTRDTSTSTVYMELSSLRSEDTAVYYCARDGYGSSSRCLQLWGQGTLVTVSS VL: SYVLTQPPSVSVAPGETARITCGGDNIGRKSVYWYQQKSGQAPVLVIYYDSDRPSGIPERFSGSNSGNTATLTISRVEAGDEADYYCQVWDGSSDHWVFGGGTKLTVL"
endpoint_value = 0.072


Here's the next entry for you.
Prompt: Fill in: koff of TINA-0206.0128 (antibody, V domains shown, Monospecific IgG4PE) VH: QVQLVQSGAEVKKPGASVKVSCKASRYSFTSYYMHWVRQAPGQGLEWMGIINPKSGDTSYAQKFQGRVTMTRDTSTSTVYMDLSSLRSEDTAVYYCARDGYGSSARCLQLWGQGTLVTVSS VL: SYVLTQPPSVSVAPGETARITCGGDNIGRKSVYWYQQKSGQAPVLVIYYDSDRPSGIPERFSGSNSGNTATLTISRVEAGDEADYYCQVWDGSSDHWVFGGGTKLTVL is ___
Completion: 0.0667
